ASSAY_INFO: In vitro percent nitric oxide released from the test compound was determined as the percent of nitrite (NO2-) produced in the present of L-cysteine in Phosphate buffer saline at 16 hr
Assay type: functional
Output criterion met for NO release not less than 40%; output criterion not met otherwise.

Take a look at these entries with their results.
>  <SMILES_STRUCTURE>
Cc1cn([C@H]2C[C@H](O)[C@@H](COc3no[n+]([O-])c3S(=O)(=O)c3ccccc3)O2)c(=O)[nH]c1=O

>  <CLASS_LABEL>
criterion not met

$$$$
>  <SMILES_STRUCTURE>
O=c1ccn([C@H]2C[C@H](O)[C@@H](COc3no[n+]([O-])c3S(=O)(=O)c3ccccc3)O2)c(=O)[nH]1

>  <CLASS_LABEL>
criterion met

$$$$
>  <SMILES_STRUCTURE>
O=c1ccn([C@H]2C[C@H](Oc3no[n+]([O-])c3S(=O)(=O)c3ccccc3)[C@@H](CO)O2)c(=O)[nH]1

>  <CLASS_LABEL>
criterion met

$$$$
>  <SMILES_STRUCTURE>
O=c1[nH]c(=O)n([C@H]2C[C@H](O)[C@@H](COc3no[n+]([O-])c3S(=O)(=O)c3ccccc3)O2)cc1I

>  <CLASS_LABEL>
criterion met

$$$$

Now consider a different molecule.
Entry O=S(=O)(c1ccccc1)c1no[n+]([O-])c1S(=O)(=O)c1ccccc1 : is its NO release no less than 40%?
criterion not met

----------
Test system: Hs578Bst (Homo sapiens)
ASSAY_INFO: In vitro cell cytotoxicity was determined against Hs 578.Bst cell line
PROPERTY_NAME: CC50 (nM)
Numbers only, in nM.

In the examples that follow, each entry is paired with its recorded CC50.
>  <SMILES_STRUCTURE>
Cc1cn([C@H]2C[C@H](Oc3no[n+]([O-])c3S(=O)(=O)c3ccccc3)[C@@H](CO)O2)c(=O)[nH]c1=O

>  <TARGET_OR_TEST_SYSTEM>
Hs578Bst (Homo sapiens)

>  <ENDPOINT_UNIT>
nM

>  <QUANTITATIVE_RESULT>
2000

$$$$
>  <SMILES_STRUCTURE>
O=c1[nH]c(=O)n([C@H]2C[C@H](O)[C@@H](COc3no[n+]([O-])c3S(=O)(=O)c3ccccc3)O2)cc1I

>  <TARGET_OR_TEST_SYSTEM>
Hs578Bst (Homo sapiens)

>  <ENDPOINT_UNIT>
nM

>  <QUANTITATIVE_RESULT>
800

$$$$

Tell me CC50 reported for O=c1ccn([C@H]2C[C@H](O)[C@@H](COc3no[n+]([O-])c3S(=O)(=O)c3ccccc3)O2)c(=O)[nH]1
4800

----------
Test system: 143B
ASSAY_INFO: In vitro cell cytotoxicity was determined against 143B-LTK cell line
Type: functional
CONDITIONS_USED: Homo sapiens
Please go through the items and note down their CC50.
Give bare numbers, in nM.

>  <SMILES_STRUCTURE>
O=c1[nH]c(=O)n([C@H]2C[C@H](O)[C@@H](COc3no[n+]([O-])c3S(=O)(=O)c3ccccc3)O2)cc1I

>  <CC50 [nM]>
710

$$$$

Hi there! I need CC50 for each item below, if you can.
1. O=c1ccn([C@H]2C[C@H](Oc3no[n+]([O-])c3S(=O)(=O)c3ccccc3)[C@@H](CO)O2)c(=O)[nH]1
2. O=c1[nH]c(=O)n([C@H]2C[C@H](O)[C@@H](CO)O2)cc1I
3. O=c1[nH]c(=O)n([C@H]2C[C@H](Oc3no[n+]([O-])c3S(=O)(=O)c3ccccc3)[C@@H](CO)O2)cc1I
4. Cc1cn([C@H]2C[C@H](O)[C@@H](CO)O2)c(=O)[nH]c1=O

2900
100000
1300
700000
